# Tested on: COLO 205 colon
# measurement.protocol: NCI-60 one-dose screen, 48 h (100 = growth as untreated, 0 = no growth, -100 = all killed)
# run.parameters: 10 µM unless noted
About 83,000 compounds went through this panel and 20% of them were active in at least one assay; those are over-represented in the sample as a whole.
recorded.metric: growth (%)
Record the value in %, omitting the unit from your answer.

Below, 4 molecules whose answers are already recorded.
N/C(=N\c1nc2ccccc2s1)NC(=O)Nc1cccc(Cl)c1: 26.2
CCc1ccccc1-n1c(-c2ccc(Cl)cc2)cc(-c2ccc(Cl)cc2)c(C#N)c1=O: 89.4
Oc1c(CN2CCCC2)cc(COCc2ccc(Br)cc2)c2cccnc12: 39.1
CC(=O)n1c(-c2ccc(Cl)cc2)nc2c(c1=O)C(c1ccc(Cl)cc1)c1sc3c(Cl)cccc3c1O2 (stereo not given): -55.9

Moving on to another molecule below.
Prompt line: # input molecule: Cc1ccc(S(=O)(=O)N/N=C\c2cc(Cl)ccc2O)cc1 ; wanted: its growth
Response line: 96.9

* * *

# Tested on: SNB-19 CNS
# measurement.protocol: NCI-60 one-dose screen, 48 h
# run.parameters: 10 µM unless noted
This is part of a sample that, as a whole, favours compounds with a hit. Of some 83,000 tested, about 20% had one in any assay. Activity calls are given as the source filed them. How the source made its calls: active means growth percent below 10; inactive means the rest.
// one of active, inactive, no free text

These solved cases illustrate the format of a correct answer.
NC(=N\N=C/c1ccccc1[N+](=O)[O-])/C(N)=N\N=C/c1ccccc1[N+](=O)[O-]: inactive
O=S(=O)(NCCCNc1cc(-c2c(-c3cccc(O)c3)nc3sccn23)ccn1)c1cccc(Cl)c1: inactive

Prompt line: For COc1ccc(C2=Nc3c(N)ncnc3NC(c3ccc4c(c3)OCO4)C2)cc1 (centres undefined) , which call appears in the assay record?
Response line: inactive

Prompt line: Cool, now CCCCCCCCCCN(CCCCCCCCCC)CC(=O)c1ccc2cc(Br)c3ccccc3c2c1
Response line: inactive

Prompt line: Cool, now C=CCNc1nc(NN2C(=O)c3cccc4cccc(c34)C2=O)nc(-n2cnc3ccccc32)n1
Response line: inactive

Prompt line: Cool, now COCCN(C(=O)c1ccc(F)cc1F)c1c(N)n(Cc2ccccc2)c(=O)[nH]c1=O
Response line: inactive

Prompt line: Cool, now CCOP(=O)(OCC)C1CP(=O)(c2ccccc2)CC(C)=C1Cl (centres undefined)
Response line: inactive

Prompt line: Cool, now O=C(/C=C/c1cccc(O)c1)c1cccc(-n2cc(-c3ccc4ccccc4c3)[nH]c2=O)c1
Response line: active

Prompt line: Cool, now CCc1ccccc1-n1c(N)c(C#N)c(-c2ccc(N(C)C)cc2)c(C#N)c1=O
Response line: inactive

* * *

# System: NCI-H322M lung
# measurement.protocol: NCI-60 one-dose screen, 48 h (100 = growth as untreated, 0 = no growth, -100 = all killed)
# run.parameters: 10 µM unless noted
The panel holds about 83,000 compounds, 20% with a hit somewhere; the sample as a whole holds those more often.
Quick rule for you: growth at 90% or higher means yes, lower means no.

These solved cases illustrate the format of a correct answer.
COc1cc(/C=C/C(=O)N2CCN(C(=O)c3cc(OC)c(OC)c(OC)c3)CC2)ccc1OCCCN1C(=O)c2cccc3cccc(c23)C1=O: yes
Cc1ccc(/C=C/c2c(C(=O)/C=C/c3ccc(Cl)cc3)c(C)nc3ccccc23)cc1: no
COc1cc(-c2n/c(=C\c3c(O)[nH]c4ccc(Cl)cc34)cc3c2=Nc2ccccc2-3)cc(OC)c1OC: no
COc1ccc(OC)c(-c2c(C#N)c(-c3ccc(Cl)cc3)nc3c2c(-c2ccccc2)nn3-c2ccccc2)c1: yes
O=C1Nc2ccc(F)cc2C12Nc1cc(Cl)ccc1S2 (stereo not given): no
N=C1CCC(=N)c2c1c(O)c1ccccc1c2O: yes

Prompt line: Does growth meet or surpass 90% for COc1ccc(-c2csc(C3=C(O)CN(CCCN4CCCC4=O)C3=N)n2)cc1OC ?
Response line: yes

Prompt line: Cool, now COc1ccc(/C=N/C2=C(C#N)C(c3ccc(OC)cc3)c3ccc4ccccc4c3O2)cc1 (stereo not given)
Response line: yes

Prompt line: Cool, now COc1ccc(NC(=O)CSc2nnc(-c3cc(-c4ccc(S(N)(=O)=O)cc4)nc4ccccc34)n2-c2ccccc2)cc1
Response line: yes
